# experimental.system: Tyrosyl-tRNA synthetase, putative (Trypanosoma cruzi (strain CL Brener)) (UniProt Q4DSP6)
# Sequence (Q4DSP6 as listed by the source): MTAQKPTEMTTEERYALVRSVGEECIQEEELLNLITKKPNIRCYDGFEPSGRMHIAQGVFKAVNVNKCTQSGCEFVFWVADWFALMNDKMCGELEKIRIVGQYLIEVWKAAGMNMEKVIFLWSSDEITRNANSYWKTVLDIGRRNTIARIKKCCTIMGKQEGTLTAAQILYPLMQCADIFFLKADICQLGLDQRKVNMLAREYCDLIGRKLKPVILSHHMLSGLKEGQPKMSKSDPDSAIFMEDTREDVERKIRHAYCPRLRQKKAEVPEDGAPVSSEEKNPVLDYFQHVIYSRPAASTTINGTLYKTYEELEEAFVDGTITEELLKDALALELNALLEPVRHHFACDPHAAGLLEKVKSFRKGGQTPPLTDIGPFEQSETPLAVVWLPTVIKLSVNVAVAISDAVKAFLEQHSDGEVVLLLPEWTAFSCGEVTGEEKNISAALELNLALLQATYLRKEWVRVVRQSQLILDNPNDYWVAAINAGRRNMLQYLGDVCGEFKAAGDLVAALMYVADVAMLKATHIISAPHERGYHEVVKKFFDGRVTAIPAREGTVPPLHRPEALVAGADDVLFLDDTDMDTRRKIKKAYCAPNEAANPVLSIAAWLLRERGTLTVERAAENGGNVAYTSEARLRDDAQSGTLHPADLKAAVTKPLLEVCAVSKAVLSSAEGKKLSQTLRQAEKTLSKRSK
# assay: Trypanosoma cruzi tyrosyl tRNA synthetase (TcYRS) SOP
# Assay type: functional
# Set-up: scale not given: direction of the effect not stated beside the values
# protocol.conditions: 30 µM
Percent Effect: recorded values
Please reply with the bare figure in % and do not write the unit itself.

> print(dat)
                                   compound  endpoint.label  units  result.number
1     COCC(=O)N1CC[C@H]2C[C@H](C)O[C@@H]2C1  Percent Effect      %           14.1
2      Cc1ccc(CN(C)C(=O)CN2CC(n3cccn3)C2)o1  Percent Effect      %           -2.6
3  Cn1nnc2c1C(COCC1CC1)CN(C(=O)Cc1ccsc1)C2 (stereo not given)  Percent Effect      %           14.1

**Q:** System Tyrosyl-tRNA synthetase, putative (Trypanosoma cruzi (strain CL Brener)) (UniProt Q4DSP6). Read-out Percent Effect. Item `Cc1noc([C@@H]2C[C@H]3OCC[C@H]3N(S(C)(=O)=O)C2)n1` . Report value.
**A:** 8.64

**Q:** System Tyrosyl-tRNA synthetase, putative (Trypanosoma cruzi (strain CL Brener)) (UniProt Q4DSP6). Read-out Percent Effect. Item `CCC(=O)Nc1nnc(CCCOc2ccccc2)s1` . Report value.
**A:** 5.13
